Source of measurements: patent US6274715A

Reported MIC by item:
Tested on: STREPTOCOCCUS PYOGENES EES61
Assay: In vitro antibacterial activity, MIC, BHI agar dilution
Type: cell-based
Conditions: S. pyogenes EES61, unit assumed
readout label: MIC (µg/mL)

1. CC[C@H]1OC(=O)[C@H](C)C(=O)[C@H](C)[C@@H](O[C@@H]2O[C@H](C)C[C@H](N(C)C)[C@H]2O)[C@](C)(OC)C[C@@H](C)C2=NC[C@H](Cc3ccc(I)cc3)N3C(=O)O[C@@]1(C)[C@H]3[C@H]2C [Example 70] : 0.02
2. CC[C@H]1OC(=O)[C@H](C)C(=O)[C@H](C)[C@@H](O[C@@H]2O[C@H](C)C[C@H](N(C)C)[C@H]2O)[C@](C)(OC)C[C@@H](C)C2=N[C@@H]3CN(Cc4ccc(Cl)cc4)C[C@@H]3N3C(=O)O[C@@]1(C)[C@H]3[C@H]2C [Example 24] : 0.05
3. CC[C@H]1OC(=O)[C@H](C)C(=O)[C@H](C)[C@@H](O[C@@H]2O[C@H](C)C[C@H](N(C)C)[C@H]2O)[C@](C)(OC)C[C@@H](C)C2=N[C@@H]3CN(C(=O)OCc4ccccc4)C[C@@H]3N3C(=O)O[C@@]1(C)[C@H]3[C@H]2C [Example 20] : 0.005
4. CC[C@H]1OC(=O)[C@H](C)C(=O)[C@H](C)[C@@H](O[C@@H]2O[C@H](C)C[C@H](N(C)C)[C@H]2O)[C@](C)(OC)C[C@@H](C)C2=NC3CN(CC(OC)OC)CC3N3C(=O)O[C@@]1(C)[C@H]3[C@H]2C (stereo partly shown) [Example 127] : 0.1
5. CCC1OC(=O)C(C)C(=O)C(C)C(OC2OC(C)CC(N(C)C)C2O)C(C)(OC)CC(C)C2=NCC(CSc3ccccc3)(CN(C)Cc3ccccc3)N3C(=O)OC1(C)C3C2C (stereo not shown) [Example 133] : 0.02
6. CC[C@H]1OC(=O)[C@H](C)C(=O)[C@H](C)[C@@H](O[C@@H]2O[C@H](C)C[C@H](N(C)C)[C@H]2O)[C@](C)(OC)C[C@@H](C)C2=N[C@H](CN3CCOCC3)CN3C(=O)O[C@@]1(C)[C@H]3[C@H]2C [Example 95] : 0.05
7. CC[C@H]1OC(=O)[C@H](C)C(=O)[C@H](C)[C@@H](O[C@@H]2O[C@H](C)C[C@H](N(C)C)[C@H]2O)[C@](C)(OC)C[C@@H](C)C2=N[C@@H]3CCC[C@@H]3N3C(=O)O[C@@]1(C)[C@H]3[C@H]2C [Example 17] : 0.05
8. CC[C@H]1OC(=O)[C@H](C)C(=O)[C@H](C)[C@@H](O[C@@H]2O[C@H](C)C[C@H](N(C)C)[C@H]2O)[C@](C)(OC)C[C@@H](C)C2=NC3CN(S(=O)(=O)Cc4ccccc4[N+](=O)[O-])CC3N3C(=O)O[C@@]1(C)[C@H]3[C@H]2C (stereo partly shown) [Example 123] : 0.1
9. CC[C@H]1OC(=O)[C@H](C)C(=O)[C@H](C)[C@@H](O[C@@H]2O[C@H](C)C[C@H](N(C)C)[C@H]2O)[C@](C)(OC)C[C@@H](C)C2=NC3CN(C(C)c4ccccc4)CC3N3C(=O)O[C@@]1(C)[C@H]3[C@H]2C (stereo partly shown) [Example 113] : 0.05
10. CC[C@H]1OC(=O)[C@H](C)C(=O)[C@H](C)[C@@H](O[C@@H]2O[C@H](C)C[C@H](N(C)C)[C@H]2O)[C@](C)(OC)C[C@@H](C)C2=N[C@@H](COCc3ccccc3)CN3C(=O)O[C@@]1(C)[C@H]3[C@H]2C [Example 89] : 0.02
11. CC[C@H]1OC(=O)[C@H](C)C(=O)[C@H](C)[C@@H](O[C@@H]2O[C@H](C)C[C@H](N(C)C)[C@H]2O)[C@](C)(OC)C[C@@H](C)C2=NC[C@@H](Cc3ccccc3)N3C(=O)O[C@@]1(C)[C@H]3[C@H]2C [Example 6] : 0.02
12. CC[C@H]1OC(=O)[C@H](C)C(=O)[C@H](C)[C@@H](O[C@@H]2O[C@H](C)C[C@H](N(C)C)[C@H]2O)[C@](C)(OC)C[C@@H](C)C2=NC3CN(C(C)=O)CC3N3C(=O)O[C@@]1(C)[C@H]3[C@H]2C (stereo partly shown) [Example 125] : 0.1
13. CCC1OC(=O)C(C)C(=O)C(C)C(OC2OC(C)CC(N(C)C)C2O)C(C)(OC)CC(C)C2=NCC(C)(CN(C)Cc3ccccc3)N3C(=O)OC1(C)C3C2C (stereo not shown) [Example 134] : 0.02
14. CC[C@H]1OC(=O)[C@H](C)C(=O)[C@H](C)[C@@H](O[C@@H]2O[C@H](C)C[C@H](N(C)C)[C@H]2O)[C@](C)(OC)C[C@@H](C)C2=NC3CNCC3N3C(=O)O[C@@]1(C)[C@H]3[C@H]2C (stereo partly shown) [Example 109] : 0.05
15. CC[C@H]1OC(=O)[C@H](C)[C@@H](O[C@H]2C[C@@](C)(OC)[C@@H](O)[C@H](C)O2)[C@H](C)[C@@H](O[C@@H]2O[C@H](C)C[C@H](N(C)C)[C@H]2O)[C@](C)(O)C[C@@H](C)C(=O)[C@H](C)[C@@H](O)[C@]1(C)O [Ery A, Erythromycin A, reference compound] : 0.05
